tested-system: hM3 receptor (Homo sapiens)
Sequence (P20309 whole entry): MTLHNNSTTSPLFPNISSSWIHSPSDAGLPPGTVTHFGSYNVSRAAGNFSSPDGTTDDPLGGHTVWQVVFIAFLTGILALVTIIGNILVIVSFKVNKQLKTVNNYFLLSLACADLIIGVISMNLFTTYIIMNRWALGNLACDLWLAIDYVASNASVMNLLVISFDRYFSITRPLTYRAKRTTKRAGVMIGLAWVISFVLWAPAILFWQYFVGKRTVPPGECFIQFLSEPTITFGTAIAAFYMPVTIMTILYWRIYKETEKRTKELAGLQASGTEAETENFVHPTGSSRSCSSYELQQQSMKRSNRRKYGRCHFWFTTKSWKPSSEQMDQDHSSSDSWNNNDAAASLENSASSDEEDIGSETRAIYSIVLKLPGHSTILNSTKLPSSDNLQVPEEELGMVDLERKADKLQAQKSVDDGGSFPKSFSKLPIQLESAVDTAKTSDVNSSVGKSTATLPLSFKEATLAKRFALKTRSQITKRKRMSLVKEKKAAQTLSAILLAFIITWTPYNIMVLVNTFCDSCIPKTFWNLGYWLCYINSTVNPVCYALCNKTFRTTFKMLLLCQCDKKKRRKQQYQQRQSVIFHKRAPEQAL
assay-text: Calcium mobilization assay, CHO cells stably expressing hM3
Item-by-item account of EC50

Record summary for CCOC(=O)N1[C@@H]2CC[C@H]1C[C@@H](NCCNC(=O)c1ccccc1)C2 [Example 27] : reported EC50 = ~10 µM

New cases:
Record summary for CCOC(=O)N1[C@@H]2CC[C@H]1C[C@H](NCCNC(=O)c1ccccc1)C2 [Example 26] : reported EC50 = > 10 µM

* * *

tested-system: human M1 receptor (Homo sapiens)
Construct: host or cells: CHO-K1
Sequence (P11229 1-460): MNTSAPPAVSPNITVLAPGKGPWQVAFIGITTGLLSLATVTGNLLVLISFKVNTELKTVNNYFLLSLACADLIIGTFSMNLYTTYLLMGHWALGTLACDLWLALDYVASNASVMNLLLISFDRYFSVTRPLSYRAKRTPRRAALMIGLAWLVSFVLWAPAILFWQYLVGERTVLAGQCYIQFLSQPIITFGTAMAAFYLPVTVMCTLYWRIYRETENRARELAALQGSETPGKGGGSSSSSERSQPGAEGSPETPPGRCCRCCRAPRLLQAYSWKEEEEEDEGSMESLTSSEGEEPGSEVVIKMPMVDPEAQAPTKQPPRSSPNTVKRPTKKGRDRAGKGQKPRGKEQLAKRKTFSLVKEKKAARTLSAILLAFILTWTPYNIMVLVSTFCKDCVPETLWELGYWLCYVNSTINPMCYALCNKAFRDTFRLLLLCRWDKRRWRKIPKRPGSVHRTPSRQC
assay-text: Calcium mobilization assay, CHO-K1 cells stably expressing hM1 (high throughput, FDSS 6000)
Format: cell-based
measurement-context: CHO-K1, read-out: Efficacy (% Max ACh)
Item-by-item account of Emax
Respond with the bare value in %.

Record summary for COC(=O)N1C2CCC1CC(NCCNC(=O)c1ccccc1)C2 (centres unmarked) : reported Emax = 7

New cases:
Record summary for CCOC(=O)N1[C@@H]2CC[C@H]1C[C@H](NCCNC(=O)c1ccccc1)C2 : reported Emax = 57

Record summary for CCOC(=O)N1[C@@H]2CC[C@H]1C[C@H](NCCNC(=O)N1CCOCC1)C2 : reported Emax = 37

Record summary for CCOC(=O)N1[C@@H]2CC[C@H]1C[C@H](NCCNC(=O)C1CCCCC1)C2 : reported Emax = 25

Record summary for CCOC(=O)N1[C@@H]2CC[C@H]1C[C@H](NCCNC(=O)c1ccc(F)cc1)C2 : reported Emax = 48

Record summary for CCOC(=O)N1C2CCC1CC(NCCNC(=O)N1[C@H](C)CCC[C@@H]1C)C2 (some centres unmarked) : reported Emax = 26

Record summary for C=CCOC(=O)N1[C@@H]2CC[C@H]1C[C@H](NCCNC(=O)c1ccccc1)C2 : reported Emax = 29

Record summary for CCOC(=O)N1[C@@H]2CC[C@H]1C[C@H](NCCNC(=O)c1ccc(F)c(F)c1)C2 : reported Emax = 46

Record summary for CCOC(=O)N1C2CCC1CC(NCCNC(=O)c1cccc(OC)c1)C2 (centres unmarked) : reported Emax = 19

Taken from patent US8697691B2.
